Kindly state pEC50 for each of the entries shown.
tgt: human activated kallikrein enzyme (Homo sapiens)
Sequence (P03952 391-638 limits assumed): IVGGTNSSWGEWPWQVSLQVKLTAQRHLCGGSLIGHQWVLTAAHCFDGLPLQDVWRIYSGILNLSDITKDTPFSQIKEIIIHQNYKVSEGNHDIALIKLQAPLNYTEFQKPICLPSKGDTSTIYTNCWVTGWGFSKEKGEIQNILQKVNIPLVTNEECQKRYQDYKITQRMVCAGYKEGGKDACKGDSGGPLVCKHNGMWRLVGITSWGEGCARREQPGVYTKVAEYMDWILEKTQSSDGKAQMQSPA
Sequence (P03952 20-390 partner limits assumed): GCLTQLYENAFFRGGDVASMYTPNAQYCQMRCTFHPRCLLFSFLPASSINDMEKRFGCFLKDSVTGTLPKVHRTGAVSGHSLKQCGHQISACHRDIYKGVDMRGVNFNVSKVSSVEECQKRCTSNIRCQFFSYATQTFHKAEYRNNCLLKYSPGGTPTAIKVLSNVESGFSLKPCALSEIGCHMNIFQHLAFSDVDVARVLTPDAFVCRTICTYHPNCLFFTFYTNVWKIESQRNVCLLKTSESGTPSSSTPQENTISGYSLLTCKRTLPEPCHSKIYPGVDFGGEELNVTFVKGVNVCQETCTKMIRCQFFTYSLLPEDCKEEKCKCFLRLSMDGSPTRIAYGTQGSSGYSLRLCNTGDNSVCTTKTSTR
test name: Inhibition of human activated plasma kallikrein, fluorogenic peptide substrate (PFR-AMC), 500 pM enzyme format
condition description: 500 pM activated kallikrein, 30 min preincubation, 10 min reaction, room temperature, read-out: Primary Dose Response Assay: Average EC50
pEC50: −log10 of the molar value.

Here is how some compounds turned out for pEC50.
compound	tgt	quantity name	result
O=C(O)CCc1cc(C2CC2)cc2cc(CNc3cc(NC(=O)[C@H]4C[C@@H]4c4cccc(Cl)c4)ncn3)nn12	human activated kallikrein enzyme (Homo sapiens)	pEC50	7.60 to 8.60
Cc1ccnc([C@H]2C[C@@H]2C(=O)Nc2cc(OCc3cc(F)c4ncc(Cl)cc4c3)cnn2)n1	human activated kallikrein enzyme (Homo sapiens)	pEC50	7.60 to 8.60
O=C1CN(c2cc(C3CC3)cn3nc(CNc4cc(NC(=O)[C@H]5C[C@@H]5c5cc(Cl)ccn5)ncn4)nc23)C(=O)N1	human activated kallikrein enzyme (Homo sapiens)	pEC50	> 8.60
O=C(Nc1cc(OCc2ccc(-n3ccnc3)cc2)cnn1)[C@H]1C[C@@H]1c1cccc(Cl)c1 (racemic)	human activated kallikrein enzyme (Homo sapiens)	pEC50	< 6.30
Cc1ccnc([C@H]2C[C@@H]2C(=O)Nc2cc(NCc3cc(N4CC(=O)N(C)C4=O)c4ncc(C5CC5)cc4c3)ncn2)n1	human activated kallikrein enzyme (Homo sapiens)	pEC50	> 8.60
Cc1ccnc([C@H]2C[C@@H]2C(=O)Nc2cc(NCc3ccc4ncc(C5CC5)cc4c3)ncn2)n1	human activated kallikrein enzyme (Homo sapiens)	pEC50	> 8.60

# map each compound to its pEC50
1. O=C(Nc1cc(NCc2nc3ccc(C4CC4)cn3n2)ncn1)[C@H]1C[C@@H]1c1cccc(Cl)c1
2. Cc1ccnc([C@H]2C[C@@H]2C(=O)Nc2ncc(F)c(NCc3cn4cc(C5CC5)nc(N5CC(=O)N(C)C5=O)c4n3)n2)n1 (racemic)
3. O=C(Nc1cc(NCc2ccc(Cn3cc(Cl)ccc3=O)cc2)cnn1)[C@H]1C[C@@H]1c1cccc(Cl)c1 (racemic)
4. O=C(Nc1cc(NCc2cn3nc(C4CC4)ccc3n2)ccn1)[C@H]1C[C@@H]1c1cccc(Cl)c1

result:
["6.30 to 7.60", "> 8.60", "7.60 to 8.60", "> 8.60"]

// input: 4 compounds below; output: pEC50 for each
1. CC(Oc1cnnc(NC(=O)[C@H]2C[C@@H]2c2cccc(Cl)c2)c1)c1ccc(Cn2cccn2)cc1 (relative stereo)
2. O=C(Nc1cc(N2C[C@@H](O)CC2c2ccc(N3CC4CC4C3)nc2)ncn1)[C@H]1C[C@@H]1c1cccc(Cl)c1 (some centres unmarked)
3. Cc1ccnc([C@H]2C[C@@H]2C(=O)Nc2nccc(NCc3cn4cc(C5CC5)cnc4n3)n2)n1 (racemic)
4. N#Cc1ccc(Cl)cc1[C@H]1C[C@@H]1C(=O)Nc1cc(NCc2nc3ccc(C4CC4)cn3n2)ccn1 (racemic)

result:
1: 7.60 to 8.60; 2: 6.30 to 7.60; 3: > 8.60; 4: > 8.60

I would be grateful if you could provide pEC50 for each of the following entries.
1. Cc1ccnc([C@H]2C[C@@H]2C(=O)Nc2cc(N[C@@H](C)c3nc4c(N5CC(=O)N(C)C5=O)cc(C5CC5)cn4n3)ncn2)n1 (single isomer, unassigned; isomer 2)
2. Cc1ccnc([C@H]2C[C@@H]2C(=O)Nc2cc(OCc3cn4nc(C5CC5)cc(N5CC(=O)N(C)C5=O)c4n3)cnn2)n1
3. Cc1ccnc([C@H]2C[C@@H]2C(=O)Nc2nncc(N[C@H](C)c3cc4cc(C5CC5)cc(N5CC(=O)N(C)C5=O)n4n3)n2)n1 (single isomer, unassigned)
4. O=C(Nc1cc(NCc2nc3ncc(C4CC4)cn3n2)ccn1)[C@@H]1C[C@]12CCc1ccc(Cl)cc12 (racemic)
5. O=C(Nc1cc(N2C[C@@H](O)C[C@@H]2c2cn3cc(C4CC4)cnc3n2)ncn1)[C@H]1C[C@@H]1c1cc(Cl)ccn1
6. CC(C)n1ccc2nc(CNc3cc(NC(=O)[C@H]4C[C@@H]4c4cccc(Cl)c4)ncn3)cn2c1=O
7. O=C(Nc1cc(NCc2ccc3ncc(C4CC4)cc3c2)ccn1)[C@H]1C[C@@H]1c1cccc(Cl)c1

result:
7.60 to 8.60
> 8.60
> 8.60
> 8.60
> 8.60
6.30 to 7.60
7.60 to 8.60

// input: 2 compounds below; output: pEC50 for each
1. CN1C(=O)CN(c2cc(C3CC3)cc3cc(CNc4cc(NC(=O)[C@H]5C[C@@H]5c5cc(Cl)ccn5)ncn4)nn23)C1=O (racemic)
2. Cc1ccnc([C@H]2C[C@@H]2C(=O)Nc2cc(N3C[C@@H](O)C[C@@H]3c3cn4cc(C5CC5)cnc4n3)ncn2)c1 (single isomer, unassigned)

result:
1: > 8.60; 2: 7.60 to 8.60

Return reported pEC50 values for all items listed beneath this line.
1. N#Cc1ccc(Cl)cc1[C@H]1C[C@@H]1C(=O)Nc1cc(NCc2nc3ncc(C4CC4)cn3n2)ccn1 (racemic)
2. Cc1ccnc([C@H]2C[C@@H]2C(=O)Nc2cc(N3C[C@@H](O)CC3c3ccc(N4CC5CC5C4)nc3)ncn2)n1 (relative stereo)
3. Cc1ccnc([C@H]2C[C@@H]2C(=O)Nc2cc(NCc3cc(F)c4ncc(Cl)cc4c3)nc(C)n2)n1

result:
["> 8.60", "7.60 to 8.60", "7.60 to 8.60"]
